- procedure.summary: LD50 (probit method), rat
- condition.details: in vivo, iv, male Wistar rat
metric: LD50

Challenge: LD50 lookup needed for O=C1CN2Cc3cc(N4CCCCC4)ccc3N=C2N1 [Compound (I)] , thanks.
Response given: 232 mg/kg

====

- procedure.summary: LD50 (probit method), rat
- condition.details: in vivo, iv, female Wistar rat
metric: LD50 (mg/kg)
Just the number please, in mg/kg, no unit attached.

Challenge: LD50 lookup needed for O=C1CN2Cc3cc(N4CCCCC4)ccc3N=C2N1 , thanks.
Response given: 219

====

Measured solubility, listed per entry.
- procedure.summary: Solubility Test (water-solubility)
- Assay type: physicochemical
- condition.details: pH 2; Tap Water; solution pH about 2
Where a name gives a salt, the structure may show the parent alone.
Just the number please, in µg/mL, no unit attached.

molecule: O=C1CN2Cc3cc(N4CCCCC4)ccc3N=C2N1 [Compound (I)]
solubility, µg/mL: 270000
//
molecule: Cc1cccc2c1CN1CC(=O)NC1=N2.Cl [BL-3459]
solubility, µg/mL: 100

Now for the molecule whose solubility we want.
Challenge: solubility lookup needed for O=C1CN2Cc3c(ccc(Cl)c3Cl)N=C2N1 [BL-4162, hydrochloride] , thanks.
Response given: 10
